So I've got a bunch of binders here, and I need their Bioactivity relative to TL1A-0002 values.
- target-or-system: T1, recombinant human TL1A (human, UniProt O95150 71-251)
- T1 construct: Homotrimeric cytokine; biotinylated with Sulfo-NHS-biotin where captured for SPR, coated unlabelled in ELISA, soluble in bioassays; also called TNFSF15
- T1 chain: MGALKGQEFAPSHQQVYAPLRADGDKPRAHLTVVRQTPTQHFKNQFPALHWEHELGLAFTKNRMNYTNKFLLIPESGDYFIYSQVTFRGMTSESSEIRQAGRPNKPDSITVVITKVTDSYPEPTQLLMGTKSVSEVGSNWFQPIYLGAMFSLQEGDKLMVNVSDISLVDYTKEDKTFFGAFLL
- procedure-details: competition ELISA, coated TL1A, competitor bio-TL1A-0002
Give bare numbers, in fold.

# annotated cases, reported Bioactivity relative to TL1A-0002 shown
Please give the measured Bioactivity relative to TL1A-0002 for this binder: TL1A-0002 (antibody, human IgG1, kappa, V domains shown, human IgG1 effector-function-minimized/kappa; also called parental TL1A-0002) VH: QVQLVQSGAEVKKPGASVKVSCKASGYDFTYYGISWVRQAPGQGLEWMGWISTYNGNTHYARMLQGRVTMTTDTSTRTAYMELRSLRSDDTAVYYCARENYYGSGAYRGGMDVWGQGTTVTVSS VL: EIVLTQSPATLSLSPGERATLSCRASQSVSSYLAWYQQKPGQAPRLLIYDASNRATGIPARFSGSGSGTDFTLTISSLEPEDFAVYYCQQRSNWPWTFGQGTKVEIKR
1

Dear colleague, I am looking for the recorded Bioactivity relative to TL1A-0002 of the following binder: TL1A-0285 (antibody, human IgG1, kappa, V domains shown, human IgG1 effector-function-minimized/kappa) VH: QVQLVQSGAEVKKPGASVKVSCKASGYDFTYYGVSWVRQAPGQGLEWMGWISTYNDNTHYAPSLQGRVTMTTDTSTSTAYMELRSLRSDDTAVYYCARESYYGSGAHRGGMDVWGQGTTVTVSS VL: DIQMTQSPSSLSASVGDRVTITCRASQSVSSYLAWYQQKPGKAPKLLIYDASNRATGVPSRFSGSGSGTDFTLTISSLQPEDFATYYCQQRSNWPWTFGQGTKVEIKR
1.7

Hi there! I need Bioactivity relative to TL1A-0002 for each item below, if you can.
1. TL1A-0303 (antibody, human IgG1, kappa, V domains shown, human IgG1 effector-function-minimized/kappa) VH: QVQLVQSGAEVKKPGASVKVSCKASGYDFTYYGIGWVRQAPGQGLEWMGWISTYNTGTHYAPSLQGRVTMTTDTSTSTAYMELRSLRSDDTAVYYCARESYYGSGAHRGGMDVWGQGTTVTVSS VL: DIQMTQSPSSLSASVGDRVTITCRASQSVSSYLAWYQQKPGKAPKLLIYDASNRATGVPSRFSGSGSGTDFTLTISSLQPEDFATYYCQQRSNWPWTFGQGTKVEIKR
2. TL1A-0288 (antibody, human IgG1, kappa, V domains shown, human IgG1 effector-function-minimized/kappa; 96 used) VH: QVQLVQSGAEVKKPGASVKVSCKASGYDFTYYGVSWVRQAPGQGLEWMGWISTYNTGTHYAPSLQGRVTMTTDTSTSTAYMELRSLRSDDTAVYYCARESYYGSGAFRGGMDVWGQGTTVTVSS VL: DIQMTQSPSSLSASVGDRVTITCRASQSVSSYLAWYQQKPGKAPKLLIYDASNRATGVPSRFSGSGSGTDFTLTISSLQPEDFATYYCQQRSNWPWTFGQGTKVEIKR
3. TL1A-0262 (antibody, human IgG1, kappa, V domains shown, human IgG1 effector-function-minimized/kappa) VH: QVQLVQSGAEVKKPGASVKVSCKASGYDYTYYGISWVRQAPGQGLEWMGWISTYNTGTHYAQKLQGRVTMTTDTSTSTAYMELRSLRSDDTAVYYCARESYYGSGAFRGGMDVWGQGTTVTVSS VL: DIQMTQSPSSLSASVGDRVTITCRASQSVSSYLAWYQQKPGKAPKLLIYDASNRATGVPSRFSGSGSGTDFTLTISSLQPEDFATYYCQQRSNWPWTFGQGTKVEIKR

1: 3; 2: 1.6; 3: 1.4

Values were extracted from patent US20240059799A1.
